These data points were gathered from patent US20260116991A1.

- TARGET_DESC: T1, GPC3 endogenously expressed on HepG2 cells (UniProt P51654 25-554)
- T1 construct: whole, on cells
- METHOD_NOTES: FACS on HepG2 cells;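 also: flow cytometric binding of chimeric antibodies to cells, read as mean fluorescence intensity, EC50 obtained by curve fitting of the MFI data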
pEC50: −log10 of the molar value.

BINDER | pEC50
F1.3.9 human-murine chimeric antibody (antibody, human IgG1, kappa, V domains shown) VH: QVQLQQPGTELVKPGASVKLSCKASGYTFTSYWIHWVKQRPGQGLEWIGNINPPNAGTNYNEKFKSKATLTVDKSSSTAYMQLSSLTSEDSAVYYCARGRWLLHDYWGQGTTLTVSS VL: DIQMTQSPASLSISVGETVTITCRASENIYSNLAWYQQKQGKSPQLLVYGTKNLAEGVPSRFSGSGSGTQYSLKINSLQSEDFGNYYCQHFWGTPYTFGGGTKLEILR | 9.10
F1.57.21 human-murine chimeric antibody (antibody, human IgG1, kappa, V domains shown) VH: QVQLQQSGAELARPGASVKLSCKASGYTFTSYGISWVKQITGQGLEWIGEIYPRSESTYYNEKFKGKATLTADKSSSTAYMELRSLTSEDSAVYFCARDYGNIYSFAYWGQGTLVTVSA VL: DIQMTQSPASLSASVGETVTITCRTSENIYSYLAWYQQKQGKSPQLLVYNAKTLAEGVPSRFSGSGSGTQFSLKINSLQPEDFGSYYCQHHYGTPLTFGAGTKLELKR | 9.15
F2.169.2 human-murine chimeric antibody (antibody, human IgG1, kappa, V domains shown) VH: EVQLVETGGGLVQPKGSLKLSCAASGFSFNTNAMNWVRQAPGKGLEWVARIRSKSNNYATYYADSVKDRFTISRDDSQSMLYLQMNNLKTEDTAMYYCVRDGYYVLFAYWGQGTLVTVSA VL: DVLMTQTPLSLPVSLGDQASISCRFSQSIVNSNGNTYLEWFLQKPGQSPKLLIYKVSNRFSGVPDRFSGSGSGTDFTLKISRVEAEDLGVYYCFQGSHVPFTFGTGTKLEIKR | 9.19
F2.154.1 human-murine chimeric antibody (antibody, human IgG1, kappa, V domains shown) VH: QVQLQQSGAELVRPGASVKLSCKASGYRFTDYEMHWVKQTPVHGLEWIGTIDPETGNTAYTQKFMDKATLTADKSSSTAYMELRSLTSEDSAVYYCTRGYSFTYWGQGTLATVSA VL: DVLMTQTPLSLPVSLGDQASISCRSSQNIVHSNGNTYLQWYLQKPGQSPKLLIFKVSNRFSGVPDRFSGSGSGTDFTLKISRVEAEDLGVYYCFQGSHVPFTFGTGTKLEIKR | 9.43
F4.26.1 human-murine chimeric antibody (antibody, human IgG1, kappa, V domains shown) VH: QVQLKQSGPGLVQPSQSLSITCTVSGFSLTSYGVHWVRQSPGKGLEWLGVIWSSGNTDYNAVLISRLSIKKDDSKSQVFFKMNSPQVDDSAIYYCGRNGGWLLRGFMDFWGQGTSVTVSS VL: DVVMTQTPLSLPVSLGDQASISCRSSQSLLHSNGNTYLHWYLQRSGQSPNLLIYKVSNRFSGVPDRFSGGGSGTDFTLKISRVEAEDLGIYFCSQSTHVPWTFGGGTKLEIKR | 9.07
